- EXPERIMENTAL_TARGET: hROMK (hKir1.1) (Homo sapiens (Human))
- Sequence (P48048 whole entry): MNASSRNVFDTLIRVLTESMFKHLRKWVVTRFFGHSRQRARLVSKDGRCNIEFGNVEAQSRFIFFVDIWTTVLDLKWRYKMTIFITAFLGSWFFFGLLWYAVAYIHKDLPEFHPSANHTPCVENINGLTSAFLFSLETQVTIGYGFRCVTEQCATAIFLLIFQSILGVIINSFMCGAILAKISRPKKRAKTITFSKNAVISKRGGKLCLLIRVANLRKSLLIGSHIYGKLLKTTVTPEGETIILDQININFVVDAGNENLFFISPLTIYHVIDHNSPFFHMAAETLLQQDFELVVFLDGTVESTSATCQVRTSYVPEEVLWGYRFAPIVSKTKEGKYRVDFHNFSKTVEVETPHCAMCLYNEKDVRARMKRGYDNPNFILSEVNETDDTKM
- PROTOCOL: Thallium Flux Assay (ROMK channel functional thallium flux, FLIPR-Tetra)
- CONDITION_DESCRIPTION: HEK293 cells stably expressing hROMK (hKir1.1)
hey, just use true (1) if measured IC50 is less than 300 nM, otherwise false (0)

These solved cases illustrate the format of a correct answer.
MOLECULE: N#Cc1c(F)ccc([C@@H]2CN3CCN(C(=O)C4CCc5nc(-n6cnnn6)ncc54)C[C@@H]3CO2)c1Cl (some centres unmarked) [Example 81]
LABEL: true (1)
--
MOLECULE: Cc1c([C@H]2CN3CCN(C(=O)C4CCc5cc(-n6cnnn6)ncc54)C[C@H]3CO2)ccc(C#N)c1F (some centres unmarked) [Example 93]
LABEL: false (0)
--
MOLECULE: Cc1c([C@@H]2CN3CCN(C(=O)C4CCc5cc(-n6cnnn6)cnc54)C[C@H]3CN2)ccc(F)c1C#N (some centres unmarked) [Example 100]
LABEL: false (0)
--
MOLECULE: Cc1c([C@H]2CN3CCN(C(=O)C4CCCc5nc(-n6cnnn6)ccc54)C[C@H]3CO2)ccc(F)c1C#N (some centres unmarked) [Example 9]
LABEL: false (0)
--
MOLECULE: Cc1c([C@@H]2CN3CCN(C(=O)C4CCc5nc(-n6cnnn6)ccc54)C[C@H]3CO2)ccc(F)c1C#N (some centres unmarked) [Example 7]
LABEL: true (1)
--
MOLECULE: Cc1c([C@@H]2CN3CCN(C(=O)C4CCc5nc(-n6cnnn6)ncc54)C[C@H]3CO2)ccc(F)c1C#N (single isomer, unassigned) [Example 2F]
LABEL: false (0)
--
MOLECULE: N#Cc1c(F)ccc([C@H]2CN3CCN(C(=O)C4CCc5cc(-n6cnnn6)ncc54)C[C@H]3CO2)c1Cl (some centres unmarked) [Example 32]
LABEL: true (1)
--
MOLECULE: COc1c([C@@H]2CN3CCN(C(=O)C4CCc5cc(-n6cnnn6)ncc54)C[C@H]3CO2)ccc(F)c1C#N (some centres unmarked) [Example 52]
LABEL: false (0)

In: Hi there! Is IC50 for N#Cc1c(F)ccc([C@H]2CN3CCN(C(=O)C4CCc5nc(-n6cnnn6)ccc54)C[C@@H]3CO2)c1Cl (some centres unmarked) [Example 30] below 300 nM, do you know?
Out: true (1)

In: Lab log: compare recorded IC50 with 300 nM; is it strictly lower for N#Cc1c(F)ccc([C@H]2CN3CCN(C(=O)C4CCc5cc(-n6cnnn6)ncc54)C[C@@H]3CO2)c1F (some centres unmarked) [Example 23] ?
Out: false (0)

In: I wonder whether Cc1c([C@@H]2CN3CCN(C(=O)C4CCc5nc(-n6cnnn6)ccc54)C[C@H]3CO2)ccc(F)c1C#N (some centres unmarked) [Example 6] has IC50 below 300 nM. Can you tell?
Out: true (1)

In: hey, is IC50 for O=C1OCc2c1ccc([C@@H]1CN3CCN(C(=O)C4CCc5nc(-n6cnnn6)ccc54)C[C@H]3CO1)c2C1CC1 (some centres unmarked) [Example 95] lower than 300 nM or not?
Out: true (1)

In: Input COc1c([C@@H]2CN3CCN(C(=O)C4CCc5cc(-n6cnnn6)ncc54)C[C@H]3CO2)ccc(C#N)c1F (some centres unmarked) [Example 70] ; condition: IC50 strictly below 300 nM. Does it hold?
Out: false (0)

In: Please indicate whether the reported IC50 of Cc1c([C@H]2CN3CCN(C(=O)C4CCc5nc(-n6cnnn6)ncc54)C[C@H]3CO2)ccc2c1COC2=O (some centres unmarked) [Example 3] is strictly below 300 nM.
Out: true (1)

In: Threshold test, IC50 < 300 nM: Cc1c([C@@H]2CN3CCN(C(=O)C4CCc5nc(-n6cnnn6)ncc54)C[C@H]3CO2)ccc(F)c1C#N (single isomer, unassigned) [Example 2E]
Out: true (1)

* * *

Measured IC50, listed per entry.
- EXPERIMENTAL_TARGET: Kir1.1 (ROMK1) (Homo sapiens (Human), UniProt P48048)
- Sequence (P48048 whole entry): as above
- PROTOCOL: Electrophysiology Assay (whole cell voltage clamp, IonWorks Quattro)
- CONDITION_DESCRIPTION: Chinese hamster ovary cells stably expressing Kir1.1; block during voltage step to 0 mV
I only need the number, in nM, no unit after it.

COMPOUND: Cc1c([C@@H]2CN3CCN(C(=O)C4CCc5cc(-n6cnnn6)cnc54)C[C@@H]3CO2)ccc(F)c1C#N (stereo partly shown)
IC50 / nM: 140
--
COMPOUND: N#Cc1c(F)ccc([C@@H]2CN3CCN(C(=O)C4CCc5nc(-n6cnnn6)ncc54)C[C@@H]3CO2)c1Cl (stereo partly shown) [Example 81]
IC50 / nM: 60
--
COMPOUND: COc1cc([C@H]2CN3CCN(C(=O)C4CCc5nc(-n6cnnn6)ccc54)C[C@H]3CO2)ccc1C#N (stereo partly shown)
IC50 / nM: 190
--
COMPOUND: Cc1c([C@H]2CN3CCN(C(=O)C4CCc5nc(-n6cnnn6)ccc54)C[C@H]3CO2)ccc(F)c1C#N (stereo partly shown) [Example 4]
IC50 / nM: 180
--
COMPOUND: N#Cc1c(F)ccc([C@H]2CN3CCN(C(=O)C4CCc5cc(-n6cnnn6)ncc54)C[C@H]3CO2)c1F (stereo partly shown)
IC50 / nM: 60
--
COMPOUND: N#Cc1c(F)ccc([C@H]2CN3CCN(C(=O)C4CCc5cc(-n6cnnn6)ncc54)C[C@H]3CO2)c1Cl (stereo partly shown)
IC50 / nM: 70

In: Determine its reported IC50: COc1ccc([C@H]2CN3CCN(C(=O)C4CCc5cc(-n6cnnn6)ncc54)C[C@@H]3CO2)c(C)c1C#N (stereo partly shown)
Out: 280

* * *

- EXPERIMENTAL_TARGET: UniProt P48048
- PROTOCOL: Thallium Flux Assay (ROMK channel functional thallium flux, FLIPR-Tetra)
- CONDITION_DESCRIPTION: HEK293 cells stably expressing hROMK (hKir1.1)
Items are presented alongside their recorded IC50.
Give a bare numeral; the unit nM is implied.

In: Check the records and state IC50 for Cc1c([C@@H]2CN3CCN(C(=O)C4CCc5nc(-n6cnnn6)ncc54)C[C@@H]3CO2)ccc(F)c1C#N (single isomer, unassigned) [Example 2C]
Out: 120

* * *

pIC50 values for the compounds below.
- EXPERIMENTAL_TARGET: hROMK (hKir1.1) (Homo sapiens (Human))
- PROTOCOL: Thallium Flux Assay (ROMK channel functional thallium flux, FLIPR-Tetra)
- Format: cell-based
- CONDITION_DESCRIPTION: HEK293 cells stably expressing hROMK (hKir1.1)
Scale: negative log10 of molar concentration, which is what pIC50 denotes.

Check out these entries, answers already filled in.
COMPOUND: Cc1c([C@@H]2CN3CCN(C(=O)C4CCc5nc(-n6cnnn6)ccc54)C[C@H]3CN2)ccc(F)c1C#N (some centres unmarked) [Example 98]
pIC50: 6.41
//
COMPOUND: Cc1c([C@@H]2CN3CCN(C(=O)C4CCc5cc(-n6cnnn6)ncc54)C[C@@H]3CN2)ccc(F)c1C#N (some centres unmarked) [Example 106]
pIC50: 6.40

In: State its pIC50: Cc1c([C@H]2CN3CCN(C(=O)C4CCc5nc(-n6cnnn6)ncc54)C[C@H]3CN2)ccc(F)c1C#N (some centres unmarked) [Example 102]
Out: 6.35

In: Tell me pIC50 reported for Cc1c([C@H]2CN3CCN(C(=O)C4CCc5cc(-n6cnnn6)ncc54)C[C@H]3CN2)ccc(F)c1C#N (some centres unmarked) [Example 97]
Out: 6.80

In: Annotate the compound Cc1c([C@H]2CN3CCN(C(=O)C4CCc5cc(-n6cnnn6)ncc54)C[C@@H]3CO2)ccc(F)c1C#N (some centres unmarked) [Example 40] with its measured pIC50.
Out: 6.57

In: Return the recorded pIC50 value; entry: Cc1c([C@H]2CN3CCN(C(=O)C4CCCc5nc(-n6cnnn6)ccc54)C[C@@H]3CO2)ccc(F)c1C#N (some centres unmarked) [Example 13]
Out: 6.49

In: State, in one line, measured pIC50 of N#Cc1c(F)ccc([C@@H]2CN3CCN(C(=O)C4CCc5nc(-n6cnnn6)ccc54)C[C@@H]3CO2)c1F (some centres unmarked) [Example 20]
Out: 6.64

In: Recall and state the measured pIC50 for N#Cc1c(F)ccc([C@@H]2CN3CCN(C(=O)C4CCc5cc(-n6cnnn6)ncc54)C[C@@H]3CO2)c1F (some centres unmarked) [Example 24] .
Out: 6.96

In: For the compound Cc1c([C@H]2CN3CCN(C(=O)C4CCCc5nc(-n6cnnn6)ccc54)C[C@H]3CO2)ccc(F)c1C#N (some centres unmarked) [Example 8] , give its measured pIC50 value.
Out: 6.46

In: In one line, give reported pIC50 of the entry N#Cc1c(F)ccc([C@@H]2CN3CCN(C(=O)C4CCc5nc(-n6cnnn6)ccc54)C[C@@H]3CO2)c1Cl (some centres unmarked) [Example 64] .
Out: 6.92

In: Quick one: give measured pIC50 for Cc1c([C@H]2CN3CCN(C(=O)C4CCc5nc(-n6cnnn6)ncc54)C[C@H]3CO2)ccc(F)c1C#N (single isomer, unassigned) [Example 2G]
Out: 6.57

In: Fill in reported pIC50 for this entry: Cc1c([C@H]2CN3CCN(C(=O)C4CCc5cc(-n6cnnn6)cnc54)C[C@@H]3CO2)ccc(F)c1C#N (some centres unmarked) [Example 39]
Out: 6.22

In: Give reported pIC50 value for Cc1c([C@@H]2CN3CCN(C(=O)C4CCc5cc(-n6cnnn6)ncc54)C[C@@H]3CO2)ccc(F)c1C#N (some centres unmarked) [Example 43]
Out: 6.07

In: Output pIC50 of Cc1c([C@H]2CN3CCN(C(=O)C4CCc5cc(-n6cnnn6)ncc54)C[C@@H]3CN2)ccc(F)c1C#N (some centres unmarked) [Example 103]
Out: 6.74

In: Give recorded pIC50. N#Cc1c(F)ccc([C@@H]2CN3CCN(C(=O)C4CCc5nc(-n6cnnn6)ccc54)C[C@H]3CO2)c1Cl (some centres unmarked) [Example 26]
Out: 6.66

In: Using the record for N#Cc1c(F)ccc([C@@H]2CN3CCN(C(=O)C4CCc5cc(-n6cnnn6)ncc54)C[C@H]3CO2)c1Cl (some centres unmarked) [Example 31] , state its measured pIC50.
Out: 6.96

In: Given N#Cc1c(F)ccc([C@@H]2CN3CCN(C(=O)C4CCc5nc(-n6cnnn6)ccc54)C[C@H]3CO2)c1Cl (some centres unmarked) [Example 27] , respond with its pIC50.
Out: 6.64

In: Item N#Cc1c(F)ccc([C@@H]2CN3CCN(C(=O)C4CCc5nc(-n6cnnn6)ccc54)C[C@H]3CO2)c1F (some centres unmarked) [Example 18] : provide pIC50
Out: 6.40
